Provenance of the data: patent EP0497988A1

# assayExplanation: Cell toxicity to mock-infected MT-4 cells by MTT method
# Type: cell-based
# assaySetup: human, 5 days, read-out: CC₅₀
assayReadout: CC50 at 120 h (µg/mL)
# unit: µg/mL | format: bare number

Enquiry: Which measured CC50 at 120 h value corresponds to Cc1cn([C@H]2C[C@H](N=[N+]=[N-])[C@@H](CO)O2)c(=O)[nH]c1=O [AZT, 3'-azide-3'-deoxythymidine, reference compound] ?
Return: 3.06
